- Test Method Notes: protein stability index of a GFP-peptide fusion (GPS, HEK-293T) (PSI 1-6); higher = more stable;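 also: 24-mer peptide tiles fused after GFP, lentivirally expressed, FACS-sorted into six equal bins by GFP/DsRed ratio, decoded by Illumina sequencing, PSI is the read-weighted mean bin number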
- Settings: treatment: MLN4924 1 uM, 8 h; c terminus: a fixed tail appended
Measurement Kind: protein stability index
Please state the value as a number alone, without comment.

These solved cases illustrate the format of a correct answer.
| Monomer Sequence | protein stability index |
| --- | --- |
| LQREKEFKAKEAAALGSRGSCSTE [ATP6V1G1] | 5.1 |
| HSYNVTQRRPRVLSCLHSVCEQCL [RNF208] | 3.16 |
| SPTDIQDSSIIRTTQDLFAINRDT [RHOBTB3] | 4.67 |
| DSYTATGYGRAPGGLSLHDYKLLK [JUNB] | 3.39 |
| KVIYLDDDVIVQGDIQELYDTTLA [GLT8D2] | 2.94 |

// switching to the query sequence
Quick one: protein stability index for VVVCQCGLSIPSHSSELTEQKLRA [RPAIN] ?
2.36

---

- Test Method Notes: protein stability index of a GFP-peptide fusion (GPS, HEK-293T) (PSI 1-6); higher = more stable
- Settings: treatment: DMSO; c terminus: a fixed tail appended
Use protein stability index to assign classes; range list: lower segment = under 3, middle segment = from 3 up to 4, upper segment = 4 and over

Illustrative cases are given below, each with its answer.
| Monomer Sequence | Group |
| --- | --- |
| IVSRATGRCLEVEMSKDANFGLRL [GALNT9] | lower segment |
| FPVSVTQQSPAAVSMETYHVTLTL [C2CD2L] | middle segment |
| DDFRSKYQTEQSLRLLVESDINSI [KRT34] | middle segment |
| GIFLFCVCVIAIGVVQALIVGYAF [TMEM175] | lower segment |
| RGPPHGWPKLCPCLRSGIGSSQAL [MYCL] | lower segment |
| DLEAVVPQNGSETGWARKGLGNTW [ATP23] | middle segment |
| TSLTALSLASASPPLSGRSTPKLT [PPFIA4] | upper segment |
| DENLDRMVPISKQPKEKIQAIIES [NOL4L] | upper segment |

Each sequence maps to one class by protein stability index. Which class for PLHLSALRDDVLCARMLYNYGADT [ASB7] ?
lower segment

Each sequence maps to one class by protein stability index. Which class for WTQATGLGCALLAAHAVVLCALPV [SOAT2] ?
middle segment

Using the reported protein stability index, which band applies to PSALVPSVTEYRLDGHTISDLSRS [MYBL2] ?
upper segment

---

- Test Method Notes: protein stability index of a GFP-peptide fusion (GPS, HEK-293T) (PSI 1-6); higher = more stable
- Settings: treatment: MLN4924 1 uM, 8 h; c terminus: a fixed tail appended
Outcome label depends on protein stability index relative to 3: at/above gives rule met, below gives rule not met.

| Monomer Sequence | Group |
| --- | --- |
| VHASGWNKILVPLVLLRQMLLELT [BCL2L13] | rule not met |
| DGKLLWEQELYNNFVYNSPRGYFH [WASL] | rule not met |
| LLVGAAVFDALESDHEMREEEKLK [KCNK9] | rule met |
| VITKHNDDEQYAWESSAGGSFTVR [HSP90AB1] | rule met |
| MEDGSLDITQSIEDDPLLDAQLLP [TMEM192] | rule met |
| PQDYKKRLSVELTSSLFRTEPMAW [CTNNB1] | rule not met |
| IKSDEECRDLVDEAKNYLLLPQER [KLHL20] | rule met |
| PGDPSKDRAAKRLSLESEGAGEGA [TPPP] | rule met |

Textbook exercise: given the entry GRGNFPTLEITLKDIVQTVRSRLE [TENT5C] , state whether its protein stability index is greater than or equal to 3.
rule not met

In plain terms: is recorded protein stability index at least 3 for AGPQSQVLCGVVMDRSLVQDAPLS [ADD1] ?
rule met

API: above_or_equal(metric=protein stability index, cutoff=3) for item KLTREVLSLFVQKLGNLMSLDISG [ZER1]
rule not met

Identify whether the reported protein stability index of the following sequence is 3 or greater: WDLVSASVVCRELGFGSAKEAVTG [LOXL2]
rule not met

Determine whether this sequence has protein stability index no lower than 3: LNKLYPTHACREYLKNLPLLSKYC [TPH1]
rule not met
